Experiment: Tissue distribution after single oral PU-48 SNEDDS
Assay type: in vivo
Details: intestine; 12 h, rat, oral PU-48 SNEDDS 12 mg/kg; read-out: Concentration of PU-48 in intestine

compound-smiles	concentration at 12 h (ng/g)
COC(=O)c1sc2nc3ccc(OC)cc3cc2c1N	45.4

---

Assay: Plasma pharmacokinetics after single oral PU-48 SNEDDS
Format: in vivo, rat
Details: plasma; 4 h, rat, oral PU-48 SNEDDS 3 mg/kg

compound-smiles	concentration at 4 h (ng/mL)
COC(=O)c1sc2nc3ccc(OC)cc3cc2c1N	1.1

---

Test: Tissue distribution after single oral PU-48 SNEDDS
Assay type: in vivo
Conditions: lung; 24 h, rat, oral PU-48 SNEDDS 12 mg/kg; read-out: Concentration of PU-48 in lung
Experimental: Internal standard (IS, 25 μL) was added to 50 μL plasma, urine, or bile sample in a clean tube, placed into a water bath at 37 °C, and dried under a gentle stream of nitrogen gas, followed by the addition of 0.5 mL of ethyl acetate for liquid-liquid extraction. The mixture was shaken by a vortex mixer for 3 min, and then centrifuged at 8000 rpm (4200× g) for 10 min at 4 °C. After centrifugation, the upper organic phase was transferred into a clean centrifuge tube and then dried it again. […]

compound-smiles	concentration at 24 h (ng/g)
COC(=O)c1sc2nc3ccc(OC)cc3cc2c1N	1.3

---

Experiment: Tissue distribution after single oral PU-48 SNEDDS
Type: in vivo
Conditions: heart; 0.5 h, rat, oral PU-48 SNEDDS 12 mg/kg; read-out: Concentration of PU-48 in heart

compound-smiles	concentration at 0.5 h
COC(=O)c1sc2nc3ccc(OC)cc3cc2c1N	251 ng/g

---

Test: Tissue distribution after single oral PU-48 SNEDDS
Format: in vivo
Conditions: lung; 0.5 h, rat, oral PU-48 SNEDDS 12 mg/kg; read-out: Concentration of PU-48 in lung

compound-smiles	readout-units	concentration at 0.5 h
COC(=O)c1sc2nc3ccc(OC)cc3cc2c1N	ng/g	231

---

Test: Tissue distribution after single oral PU-48 SNEDDS
Format: in vivo
Settings: fat; 1 h, rat, oral PU-48 SNEDDS 12 mg/kg; read-out: Concentration of PU-48 in fat
property: concentration at 1 h (ng/g)

compound-smiles	property	readout-number
COC(=O)c1sc2nc3ccc(OC)cc3cc2c1N	concentration at 1 h	99.3

---

Assay: Tissue distribution after single oral PU-48 SNEDDS
Type: in vivo
Conditions: colon; 1 h, rat, oral PU-48 SNEDDS 12 mg/kg; read-out: Concentration of PU-48 in colon
property: concentration at 1 h (ng/g)

compound-smiles	property	readout-number
COC(=O)c1sc2nc3ccc(OC)cc3cc2c1N	concentration at 1 h	172

---

Test: Tissue distribution after single oral PU-48 SNEDDS
Type: in vivo
Details: colon; 6 h, rat, oral PU-48 SNEDDS 12 mg/kg; read-out: Concentration of PU-48 in colon

compound-smiles	readout-units	concentration at 6 h
COC(=O)c1sc2nc3ccc(OC)cc3cc2c1N	ng/g	35.2

---

Test: Tissue distribution after single oral PU-48 SNEDDS
Assay type: in vivo
Conditions: plasma; 24 h, rat, oral PU-48 SNEDDS 12 mg/kg; read-out: Concentration of PU-48 in plasma
property: concentration at 24 h (ng/mL)

compound	readout-units	readout-number
COC(=O)c1sc2nc3ccc(OC)cc3cc2c1N [PU-48]	ng/mL	0.3

---

Assay: Plasma pharmacokinetics after single oral PU-48 SNEDDS
Assay type: in vivo, rat
Details: plasma; 1 h, rat, oral PU-48 SNEDDS 6 mg/kg

compound	readout-units	concentration at 1 h
COC(=O)c1sc2nc3ccc(OC)cc3cc2c1N [PU-48]	ng/mL	48.3

---

Assay: Tissue distribution after single oral PU-48 SNEDDS
Format: in vivo
Conditions: lung; 6 h, rat, oral PU-48 SNEDDS 12 mg/kg; read-out: Concentration of PU-48 in lung
property: concentration at 6 h (ng/g)

compound	readout-number
COC(=O)c1sc2nc3ccc(OC)cc3cc2c1N [PU-48]	7.2

---

Experiment: Plasma pharmacokinetics after single oral PU-48 SNEDDS
Type: in vivo, rat
Conditions: plasma; 1 h, rat, oral PU-48 SNEDDS 12 mg/kg
property: concentration at 1 h (ng/mL)

compound-smiles	property	readout-units	readout-number
COC(=O)c1sc2nc3ccc(OC)cc3cc2c1N	concentration at 1 h	ng/mL	74.8

---

Assay: Plasma pharmacokinetics after single oral PU-48 SNEDDS
Format: in vivo, rat
Settings: plasma; 0.25 h, rat, oral PU-48 SNEDDS 12 mg/kg

compound-smiles	concentration at 0.25 h
COC(=O)c1sc2nc3ccc(OC)cc3cc2c1N	91.1 ng/mL

---

Assay: Tissue distribution after single oral PU-48 SNEDDS
Assay type: in vivo
Conditions: muscle; 24 h, rat, oral PU-48 SNEDDS 12 mg/kg; read-out: Concentration of PU-48 in muscle
property: concentration at 24 h (ng/g)

compound	readout-number
COC(=O)c1sc2nc3ccc(OC)cc3cc2c1N [PU-48]	1.4

---

Assay: Tissue distribution after single oral PU-48 SNEDDS
Assay type: in vivo
Conditions: intestine; 6 h, rat, oral PU-48 SNEDDS 12 mg/kg; read-out: Concentration of PU-48 in intestine

compound-smiles	concentration at 6 h, ng/g
COC(=O)c1sc2nc3ccc(OC)cc3cc2c1N	209

---

Assay: Tissue distribution after single oral PU-48 SNEDDS
Type: in vivo
Details: plasma; 6 h, rat, oral PU-48 SNEDDS 12 mg/kg; read-out: Concentration of PU-48 in plasma

compound	readout-units	concentration at 6 h
COC(=O)c1sc2nc3ccc(OC)cc3cc2c1N [PU-48]	ng/mL	16.8

---

Experiment: Tissue distribution after single oral PU-48 SNEDDS
Format: in vivo
Settings: spleen; 1 h, rat, oral PU-48 SNEDDS 12 mg/kg; read-out: Concentration of PU-48 in spleen
property: concentration at 1 h

compound	result
COC(=O)c1sc2nc3ccc(OC)cc3cc2c1N [PU-48]	161 ng/g

---

Experiment: Plasma pharmacokinetics after single oral PU-48 SNEDDS
Type: in vivo, rat
Settings: rat, plasma, po, 12 mg/kg, rat plasma, oral PU-48 SNEDDS 12 mg/kg, n=6

compound-smiles	half-life [min]
COC(=O)c1sc2nc3ccc(OC)cc3cc2c1N	414

---

Assay: Plasma pharmacokinetics after single oral PU-48 SNEDDS
Type: in vivo, rat
Details: rat plasma, oral PU-48 SNEDDS 12 mg/kg, n=6
property: AUC(0-inf) (ng·h/mL)

molecule	property	readout-number
COC(=O)c1sc2nc3ccc(OC)cc3cc2c1N [PU-48]	AUC(0-inf)	181

---

Assay: Tissue distribution after single oral PU-48 SNEDDS
Assay type: in vivo
Details: intestine; 1 h, rat, oral PU-48 SNEDDS 12 mg/kg; read-out: Concentration of PU-48 in intestine

compound-smiles	readout-units	concentration at 1 h
COC(=O)c1sc2nc3ccc(OC)cc3cc2c1N	ng/g	777

---

Experiment: Tissue distribution after single oral PU-48 SNEDDS
Type: in vivo
Details: intestine; 0.5 h, rat, oral PU-48 SNEDDS 12 mg/kg; read-out: Concentration of PU-48 in intestine
property: concentration at 0.5 h (ng/g)

compound-smiles	property	readout-units	readout-number
COC(=O)c1sc2nc3ccc(OC)cc3cc2c1N	concentration at 0.5 h	ng/g	655

---

Assay: Plasma pharmacokinetics after single oral PU-48 SNEDDS
Assay type: in vivo, rat
Settings: plasma; 12 h, rat, oral PU-48 SNEDDS 3 mg/kg

compound-smiles	concentration at 12 h / ng/mL
COC(=O)c1sc2nc3ccc(OC)cc3cc2c1N	0.1

---

Experiment: Tissue distribution after single oral PU-48 SNEDDS
Type: in vivo
Conditions: stomach; 1 h, rat, oral PU-48 SNEDDS 12 mg/kg; read-out: Concentration of PU-48 in stomach

compound	readout-units	concentration at 1 h
COC(=O)c1sc2nc3ccc(OC)cc3cc2c1N [PU-48]	ng/g	2020

---

Test: Tissue distribution after single oral PU-48 SNEDDS
Assay type: in vivo
Conditions: liver; 12 h, rat, oral PU-48 SNEDDS 12 mg/kg; read-out: Concentration of PU-48 in liver

compound-smiles	concentration at 12 h (ng/g)
COC(=O)c1sc2nc3ccc(OC)cc3cc2c1N	13.4

---

Assay: Plasma pharmacokinetics after single oral PU-48 SNEDDS
Type: in vivo, rat
Conditions: plasma; 4 h, rat, oral PU-48 SNEDDS 12 mg/kg

compound-smiles	readout-units	concentration at 4 h
COC(=O)c1sc2nc3ccc(OC)cc3cc2c1N	ng/mL	4.3

---

Assay: Tissue distribution after single oral PU-48 SNEDDS
Format: in vivo
Conditions: bladder; 0.5 h, rat, oral PU-48 SNEDDS 12 mg/kg; read-out: Concentration of PU-48 in bladder
property: concentration at 0.5 h (ng/g)

compound	property	readout-number
COC(=O)c1sc2nc3ccc(OC)cc3cc2c1N [PU-48]	concentration at 0.5 h	258
